- test.description: Inhibition of Caldocellum saccharolyticum beta-glucosidase by spectrophotometry
- Set-up: species or system Caldicellulosiruptor saccharolyticus

# compound, IC50 (µM)
rows = [
    ("CC(O)CC(O)[C@@H]1CC[C@@H]2[C@H](O)[C@H](O)[C@@H](CO)N21 (stereo partly drawn)", 5.1),
    ("CC(O)[C@@H](O)[C@H]1N[C@H](CO)[C@@H](O)[C@@H]1O (stereo partly drawn)", 20),
    ("OCC(O)CC(O)[C@@H]1CC[C@@H]2[C@H](O)[C@H](O)[C@@H](CO)N21 (stereo partly drawn)", 11.4),
    ("OC[C@@H](O)[C@H]1N[C@H](CO)[C@@H](O)[C@@H]1O", 3.2),
    ("OCC(O)CCCCC(O)CC(O)CCC[C@@H](O)[C@H]1N[C@H](CO)[C@@H](O)[C@@H]1O (stereo partly drawn)", 0.08),
    ("CC(O)CC[C@@H]1C[C@@H](O)[C@@H]2[C@@H](O)[C@H](O)[C@@H](CO)N12 (stereo partly drawn)", 200),
    ("CC(O)C[C@H]1N[C@H](CO)[C@@H](O)[C@@H]1O (stereo partly drawn)", 700),
    ("CC(O)CC[C@@H]1CC[C@@H]2[C@@H](O)[C@H](O)[C@@H](CO)N12 (stereo partly drawn)", 136),
]

----------
- test.description: Inhibition of Penicillium decumbens alpha-L-rhamnosidase by spectrophotometry
pIC50: −log10 of the molar value.
result.type: pIC50

# compound, result.type, experimental.value
records = [
    ("CC(O)CC(O)[C@@H]1CC[C@@H]2[C@H](O)[C@H](O)[C@@H](CO)N21 (stereo partly specified)", "pIC50", 3.74),
]

----------
- system.name: UniProt:P04062
- Sequence (whole entry): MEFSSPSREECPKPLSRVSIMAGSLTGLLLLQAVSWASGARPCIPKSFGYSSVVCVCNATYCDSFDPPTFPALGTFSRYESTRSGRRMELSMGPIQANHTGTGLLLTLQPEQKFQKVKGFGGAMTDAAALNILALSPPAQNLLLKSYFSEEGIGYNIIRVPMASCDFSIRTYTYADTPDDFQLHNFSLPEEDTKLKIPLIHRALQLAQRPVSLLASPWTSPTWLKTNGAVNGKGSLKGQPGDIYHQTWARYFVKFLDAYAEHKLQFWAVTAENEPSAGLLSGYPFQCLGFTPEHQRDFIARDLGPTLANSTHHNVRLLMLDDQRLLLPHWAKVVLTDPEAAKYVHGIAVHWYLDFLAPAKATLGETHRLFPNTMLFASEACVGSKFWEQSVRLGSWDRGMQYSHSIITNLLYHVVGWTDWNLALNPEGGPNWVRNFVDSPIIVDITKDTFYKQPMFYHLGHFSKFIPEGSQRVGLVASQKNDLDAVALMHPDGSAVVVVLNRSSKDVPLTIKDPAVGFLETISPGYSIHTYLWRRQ
- test.description: Inhibition of human placental beta-glucocerebrosidase at 1000 uM by spectrophotometry
result.type: inhibition

# compound, result.type, experimental.value
records = [
    ("CC(O)CC[C@@H]1CC[C@@H]2[C@@H](O)[C@H](O)[C@@H](CO)N12 (stereo partly specified)", "inhibition", "< 50%"),
    ("CC(O)[C@@H](O)[C@H]1N[C@H](CO)[C@@H](O)[C@@H]1O (stereo partly specified)", "inhibition", "< 50%"),
    ("CC(O)C[C@H]1N[C@H](CO)[C@@H](O)[C@@H]1O (stereo partly specified)", "inhibition", "< 50%"),
    ("CC(O)CC[C@@H]1C[C@@H](O)[C@@H]2[C@@H](O)[C@H](O)[C@@H](CO)N12 (stereo partly specified)", "inhibition", "< 50%"),
    ("OCC(O)CC(O)[C@@H]1CC[C@@H]2[C@H](O)[C@H](O)[C@@H](CO)N21 (stereo partly specified)", "inhibition", "< 50%"),
    ("CC(O)CC(O)[C@@H]1CC[C@@H]2[C@H](O)[C@H](O)[C@@H](CO)N21 (stereo partly specified)", "inhibition", "< 50%"),
]

----------
- test.description: Inhibition of almond beta-glucosidase by spectrophotometry
- Parameters: species or system Prunus dulcis
pIC50: −log10 of the molar value.
result.type: pIC50

# compound, experimental.value
records = [
    ("OC[C@H]1N[C@H]([C@H](O)CCCC[C@@H]2CCC[C@]3(CCCO3)O2)[C@@H](O)[C@@H]1O", 8.00),
    ("O=C(CCCCCCC[C@@H](O)[C@H]1N[C@H](CO)[C@@H](O)[C@@H]1O)CCCCO[C@@H]1O[C@H](CO)[C@@H](O)[C@H](O)[C@H]1O", 8.00),
    ("CC(O)CC(O)[C@@H]1CC[C@@H]2[C@H](O)[C@H](O)[C@@H](CO)N21 (some centres undefined)", 5.02),
    ("O=C(CCCO)CCCCCCCC[C@@H](O)[C@H]1N[C@H](CO)[C@@H](O)[C@@H]1O", 8.00),
]

----------
- test.description: Inhibition of almond beta-glucosidase by spectrophotometry
- Parameters: species or system Prunus dulcis

# compound, IC50
records = [
    ("OC[C@H]1N[C@H](C(O)CCC[C@@H]2CCC[C@]3(CCCCO3)O2)[C@@H](O)[C@@H]1O (stereo partly drawn)", "0.01 µM"),
    ("OCC(O)CC(O)[C@@H]1CC[C@@H]2[C@H](O)[C@H](O)[C@@H](CO)N21 (stereo partly drawn)", "25.4 µM"),
    ("CC(O)[C@@H](O)[C@H]1N[C@H](CO)[C@@H](O)[C@@H]1O (stereo partly drawn)", "120 µM"),
]

----------
The reader will find IC50 measurements below, all made with UniProtKB Q58D55.
Sequence (Q58D55 whole entry): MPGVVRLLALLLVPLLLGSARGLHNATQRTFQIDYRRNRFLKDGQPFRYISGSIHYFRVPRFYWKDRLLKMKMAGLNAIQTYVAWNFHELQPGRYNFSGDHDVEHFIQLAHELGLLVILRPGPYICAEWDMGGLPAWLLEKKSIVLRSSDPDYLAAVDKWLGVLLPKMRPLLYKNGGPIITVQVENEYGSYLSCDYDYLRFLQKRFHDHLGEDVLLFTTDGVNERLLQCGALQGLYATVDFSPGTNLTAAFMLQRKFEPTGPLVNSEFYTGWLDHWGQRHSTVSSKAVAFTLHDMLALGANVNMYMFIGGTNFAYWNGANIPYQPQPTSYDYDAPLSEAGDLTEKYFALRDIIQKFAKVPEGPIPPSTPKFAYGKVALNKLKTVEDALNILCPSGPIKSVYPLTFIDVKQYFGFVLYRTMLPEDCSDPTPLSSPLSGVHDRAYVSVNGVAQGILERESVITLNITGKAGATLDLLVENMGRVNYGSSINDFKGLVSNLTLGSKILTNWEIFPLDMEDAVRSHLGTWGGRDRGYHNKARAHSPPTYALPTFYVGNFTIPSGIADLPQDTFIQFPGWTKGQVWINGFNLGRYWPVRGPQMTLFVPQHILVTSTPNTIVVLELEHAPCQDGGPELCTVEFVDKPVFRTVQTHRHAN

# molecule, IC50, µM
records = [
    ("CC(O)CC(O)[C@@H]1CC[C@@H]2[C@H](O)[C@H](O)[C@@H](CO)N21 (stereo not given in full)", 830),
    ("OCC(O)CC(O)[C@@H]1CC[C@@H]2[C@H](O)[C@H](O)[C@@H](CO)N21 (stereo not given in full)", 920),
    ("CC(O)CC[C@@H]1C[C@@H](O)[C@@H]2[C@@H](O)[C@H](O)[C@@H](CO)N12 (stereo not given in full)", 320),
    ("OC[C@@H](O)[C@H]1N[C@H](CO)[C@@H](O)[C@@H]1O", 4.4),
    ("CC(O)C[C@H]1N[C@H](CO)[C@@H](O)[C@@H]1O (stereo not given in full)", 260),
]

----------
- test.description: Inhibition of almond beta-glucosidase by spectrophotometry
- Design: species or system Prunus dulcis
pIC50: −log10 of the molar value.
result.type: pIC50

# compound, experimental.value
records = [
    ("O=C(CCCCCCCC[C@@H](O)[C@H]1N[C@H](CO)[C@@H](O)[C@@H]1O)CCCO[C@@H]1O[C@H](CO)[C@@H](O)[C@H](O)[C@H]1O", 8.00),
    ("OCC(O)CCCCC(O)CC(O)CCC[C@@H](O)[C@H]1N[C@H](CO)[C@@H](O)[C@@H]1O (some centres undefined)", 5.18),
    ("O=C(CCCCO)CCCCCCC[C@@H](O)[C@H]1N[C@H](CO)[C@@H](O)[C@@H]1O", 8.00),
    ("CC(O)CC[C@@H]1CC[C@@H]2[C@@H](O)[C@H](O)[C@@H](CO)N12 (some centres undefined)", 4.31),
]

----------
- test.description: Inhibition of rice alpha-glucosidase by spectrophotometry
- Parameters: species or system Oryza sativa
result.type: IC50 (µM)

# molecule, experimental.value
data = [
    ("CC(O)CC(O)[C@@H]1CC[C@@H]2[C@H](O)[C@H](O)[C@@H](CO)N21 (stereo not given in full)", 300),
    ("OCC(O)CCCCC(O)CC(O)CCC[C@@H](O)[C@H]1N[C@H](CO)[C@@H](O)[C@@H]1O (stereo not given in full)", 265),
    ("OCC(O)CC(O)[C@@H]1CC[C@@H]2[C@H](O)[C@H](O)[C@@H](CO)N21 (stereo not given in full)", 390),
    ("CC(O)C[C@H]1N[C@H](CO)[C@@H](O)[C@@H]1O (stereo not given in full)", 210),
    ("CC(O)[C@@H](O)[C@H]1N[C@H](CO)[C@@H](O)[C@@H]1O (stereo not given in full)", 650),
]

----------
- test.description: Inhibition of yeast alpha-glucosidase by spectrophotometry
- Set-up: species or system Saccharomyces cerevisiae
Listed compounds paired with reported IC50

# compound, display.unit, IC50
rows = [
    ("OC[C@@H]1[C@@H](O)[C@H](O)[C@H]2[C@H](O)CCN21", "µM", 95),
    ("OCC(O)CC(O)[C@@H]1CC[C@@H]2[C@H](O)[C@H](O)[C@@H](CO)N21 (some centres not stated)", "µM", 650),
    ("CC(O)CC(O)[C@@H]1CC[C@@H]2[C@H](O)[C@H](O)[C@@H](CO)N21 (some centres not stated)", "µM", 3.6),
    ("CC(O)C[C@H]1N[C@H](CO)[C@@H](O)[C@@H]1O (some centres not stated)", "µM", 100),
    ("CC(O)CC[C@@H]1C[C@@H](O)[C@@H]2[C@@H](O)[C@H](O)[C@@H](CO)N12 (some centres not stated)", "µM", 6.6),
    ("CC(O)[C@@H](O)[C@H]1N[C@H](CO)[C@@H](O)[C@@H]1O (some centres not stated)", "µM", 630),
    ("OCC(O)CCCCC(O)CC(O)CCC[C@@H](O)[C@H]1N[C@H](CO)[C@@H](O)[C@@H]1O (some centres not stated)", "µM", 220),
]
